Reported IC50 on RAF proto-oncogene serine/threonine-protein kinase (Homo sapiens, UniProt P04049) for assorted compounds, compiled from publications.

Use these answered entries as a reference point.
INSERT INTO measurements (query_smiles, target_of_assay, parameter, test_value) VALUES
  ('Cc1ccc(NC(=O)c2ccc(NCCO)c(Cl)c2)cc1OCc1nn(C)c2ncnc(N)c12', 'RAF proto-oncogene serine/threonine-protein kinase (Homo sapiens, UniProt P04049)', 'IC50', '< 10 µM'),
  ('COc1cccc(Cc2c[nH]c3ncc(Br)cc23)c1F', 'RAF proto-oncogene serine/threonine-protein kinase (Homo sapiens, UniProt P04049)', 'IC50', '≤ 10 µM'),
  ('CCCS(=O)(=O)Nc1ccc(F)c(C(=O)c2c[nH]c3ncc(-c4ccc(N5CCN(C)CC5)nc4)cc23)c1F', 'RAF proto-oncogene serine/threonine-protein kinase (Homo sapiens, UniProt P04049)', 'IC50', '≤ 10 µM'),
  ('CCCc1ccc(S(=O)(=O)Nc2ccc(F)c(C(=O)c3c[nH]c4ncc(Cl)cc34)c2F)cc1', 'RAF proto-oncogene serine/threonine-protein kinase (Homo sapiens, UniProt P04049)', 'IC50', '≤ 10 µM'),
  ('COc1cccc(C(=O)c2c[nH]c3ncc(Br)cc23)c1F', 'RAF proto-oncogene serine/threonine-protein kinase (Homo sapiens, UniProt P04049)', 'IC50', '≤ 10 µM'),
  ('COc1ccnc2[nH]cc(C(=O)c3c(F)ccc(NS(=O)(=O)c4ccc(F)cc4F)c3F)c12', 'RAF proto-oncogene serine/threonine-protein kinase (Homo sapiens, UniProt P04049)', 'IC50', '≤ 10 µM'),
  ('COc1cnc2[nH]cc(C(=O)c3c(F)ccc(NS(=O)(=O)N4CCCC4)c3F)c2c1', 'RAF proto-oncogene serine/threonine-protein kinase (Homo sapiens, UniProt P04049)', 'IC50', '≤ 10 µM');

Moving on to the next compound.
Task: System RAF proto-oncogene serine/threonine-protein kinase (Homo sapiens, UniProt P04049). Read-out IC50. Item COc1ccc(F)c(C(=O)c2c[nH]c3ncc(-c4cccnc4)cc23)c1 . Report value.
Output: ≤ 10 µM

====

Reported IC50 on RAF proto-oncogene serine/threonine-protein kinase (Homo sapiens, UniProt P04049) for assorted molecules, compiled from publications.

INSERT INTO measurements (query_smiles, target_of_assay, test_value) VALUES
  ('Cc1cc(S(=O)(=O)Nc2ccc(F)c(C(=O)c3c[nH]c4ncc(Cl)cc34)c2F)c(C(F)(F)F)o1', 'RAF proto-oncogene serine/threonine-protein kinase (Homo sapiens, UniProt P04049)', '≤ 10 µM'),
  ('COc1cccc(S(=O)(=O)Nc2ccc(F)c(C(=O)c3c[nH]c4ncccc34)c2F)c1', 'RAF proto-oncogene serine/threonine-protein kinase (Homo sapiens, UniProt P04049)', '≤ 10 µM'),
  ('CCCS(=O)(=O)Nc1cccc(C(=O)c2c[nH]c3ncc(C)cc23)c1F', 'RAF proto-oncogene serine/threonine-protein kinase (Homo sapiens, UniProt P04049)', '≤ 10 µM'),
  ('Cc1cnc2[nH]cc(C(=O)c3cccc(NS(=O)(=O)c4ccc(C(F)(F)F)cc4)c3F)c2c1', 'RAF proto-oncogene serine/threonine-protein kinase (Homo sapiens, UniProt P04049)', '≤ 10 µM'),
  ('CCCS(=O)(=O)Nc1ccc(F)c(C(=O)c2c[nH]c3ncc(-c4ccc(OCCN5CCCC5)nc4)cc23)c1F', 'RAF proto-oncogene serine/threonine-protein kinase (Homo sapiens, UniProt P04049)', '< 0.01 µM'),
  ('O=C(c1cccc(O)c1F)c1c[nH]c2ncc(-c3cccnc3)cc12', 'RAF proto-oncogene serine/threonine-protein kinase (Homo sapiens, UniProt P04049)', '≤ 10 µM');

Task: Supply measured IC50 of O=C(Nc1cccc(C(=O)c2c[nH]c3ncccc23)c1)Nc1cc(C(F)(F)F)ccc1Cl in your reply.
Output: ≤ 10 µM

Task: Supply measured IC50 of O=C(Nc1cccc(C(=O)c2c[nH]c3ncc(Cl)cc23)c1)Nc1cc(C(F)(F)F)ccc1Cl in your reply.
Output: ≤ 10 µM

Task: Supply measured IC50 of CS(=O)(=O)Nc1cccc(-c2cnc3[nH]cc(C(=O)c4cc(O)ccc4F)c3c2)c1 in your reply.
Output: ≤ 10 µM

Task: Supply measured IC50 of CCCS(=O)(=O)Nc1ccc(F)c(C(=O)c2c[nH]c3ncc(CCCN4CCOCC4)cc23)c1F in your reply.
Output: ≤ 10 µM

Task: Supply measured IC50 of CCCS(=O)(=O)Nc1ccc(F)c(C(=O)c2c[nH]c3ncc(-c4ccc(O)nc4)cc23)c1F in your reply.
Output: ≤ 10 µM

====

Reported IC50 on RAF proto-oncogene serine/threonine-protein kinase (Homo sapiens, UniProt P04049) for assorted compounds, compiled from publications.

Use these answered entries as a reference point.
INSERT INTO assay_data (query_smiles, target_of_assay, parameter, test_value) VALUES
  ('CCCS(=O)(=O)Nc1ccc(F)c(C(=O)c2c[nH]c3ncc(-c4ccc(F)nc4)cc23)c1F', 'RAF proto-oncogene serine/threonine-protein kinase (Homo sapiens, UniProt P04049)', 'IC50', '< 0.01 µM'),
  ('N#Cc1cnc2[nH]cc(Cc3cc(F)c(OCc4nc5ccccc5[nH]4)cc3F)c2c1', 'RAF proto-oncogene serine/threonine-protein kinase (Homo sapiens, UniProt P04049)', 'IC50', '≤ 10 µM'),
  ('COc1cc(Cc2c[nH]c3ncccc23)ccc1OCc1ccc(Cl)cc1', 'RAF proto-oncogene serine/threonine-protein kinase (Homo sapiens, UniProt P04049)', 'IC50', '≤ 10 µM');

Task: Supply measured IC50 of CCCS(=O)(=O)Nc1ccc(F)c(C(=O)c2c[nH]c3ncc(-c4cccc(N(C)C)c4)cc23)c1F in your reply.
Output: ≤ 10 µM

====

pIC50: −log10 of the molar value.
Reported pIC50 on RAF proto-oncogene serine/threonine-protein kinase (Homo sapiens, UniProt P04049) for assorted molecules, compiled from publications.

Use these answered entries as a reference point.
INSERT INTO measurements (molecule, test_value) VALUES
  ('CS(=O)(=O)c1cccc(-c2cnc3[nH]cc(C(=O)c4cc(NS(=O)(=O)C5CCCCC5)ccc4F)c3c2)c1', '≥ 5.00'),
  ('CCC(C)S(=O)(=O)Nc1ccc(F)c(C(=O)c2c[nH]c3nccc(OC)c23)c1F (centres unmarked)', '≥ 5.00'),
  ('O=C(c1c(F)ccc(NS(=O)(=O)c2ncn[nH]2)c1F)c1c[nH]c2ncc(Cl)cc12', '≥ 5.00');

Task: System RAF proto-oncogene serine/threonine-protein kinase (Homo sapiens, UniProt P04049). Read-out pIC50. Item Cc1ccc(C(=O)Nc2ccc(Cl)cc2)cc1OCc1nn(C)c2ncnc(N)c12 . Report value.
Output: > 5.00

Task: System RAF proto-oncogene serine/threonine-protein kinase (Homo sapiens, UniProt P04049). Read-out pIC50. Item COc1ncc(-c2cnc3[nH]cc(C(=O)c4c(F)ccc(NS(=O)(=O)c5ccccn5)c4F)c3c2)cn1 . Report value.
Output: ≥ 5.00

Task: System RAF proto-oncogene serine/threonine-protein kinase (Homo sapiens, UniProt P04049). Read-out pIC50. Item CS(=O)(=O)Nc1ccc(F)c(C(=O)c2c[nH]c3ncc(-c4cccc(S(C)(=O)=O)c4)cc23)c1F . Report value.
Output: ≥ 5.00

Task: System RAF proto-oncogene serine/threonine-protein kinase (Homo sapiens, UniProt P04049). Read-out pIC50. Item CCCS(=O)(=O)Nc1ccc(F)c(C(=O)c2c[nH]c3ncc(-c4ccc(OCCCN(CC)CC)nc4)cc23)c1F . Report value.
Output: ≥ 5.00

====

Reported pIC50 on RAF proto-oncogene serine/threonine-protein kinase (Homo sapiens) for assorted compounds, compiled from publications.
pIC50: −log10 of the molar value.

INSERT INTO measurements (query_smiles, test_value) VALUES
  ('CC(=O)Nc1ccc(F)c(C(=O)c2c[nH]c3ncc(-c4cccnc4)cc23)c1F', '≥ 5.00'),
  ('CCCS(=O)(=O)Nc1ccc(F)c(C(=O)c2c[nH]c3ncc(-c4cnc(N(C)C)nc4)cc23)c1F', '> 8.00'),
  ('CCCS(=O)(=O)Nc1ccc(F)c(C(=O)c2c[nH]c3ncc(-c4ccc(S(=O)(=O)CC)cc4)cc23)c1F', '≥ 5.00'),
  ('CCCS(=O)(=O)Nc1ccc(F)c(C(=O)c2c[nH]c3ncc(N4CCOCC4)cc23)c1F', '≥ 5.00');

Task: Supply measured pIC50 of N#Cc1cnc2[nH]cc(C(=O)c3cccc(NS(=O)(=O)c4cc(F)ccc4F)c3F)c2c1 in your reply.
Output: > 8.00

====

Reported IC50 on RAF proto-oncogene serine/threonine-protein kinase (Homo sapiens, UniProt P04049) for assorted compounds, compiled from publications.

INSERT INTO assay_data (query_smiles, test_value) VALUES
  ('Cc1cnc2[nH]cc(C(=O)c3c(F)ccc(NS(=O)(=O)c4cccc(F)c4)c3F)c2c1', '≤ 10 µM');

Task: System RAF proto-oncogene serine/threonine-protein kinase (Homo sapiens, UniProt P04049). Read-out IC50. Item Cc1cnc2[nH]cc(C(=O)c3c(F)ccc(NS(=O)(=O)c4c(F)cccc4F)c3F)c2c1 . Report value.
Output: < 0.01 µM

Task: System RAF proto-oncogene serine/threonine-protein kinase (Homo sapiens, UniProt P04049). Read-out IC50. Item Cc1cnc2[nH]cc(C(=O)c3c(F)ccc(NS(=O)(=O)C(C)C)c3F)c2c1 . Report value.
Output: ≤ 10 µM

Task: System RAF proto-oncogene serine/threonine-protein kinase (Homo sapiens, UniProt P04049). Read-out IC50. Item O=C(Nc1ccc(F)c(C(=O)c2c[nH]c3ncc(-c4cccnc4)cc23)c1F)NC1CCCC1 . Report value.
Output: ≤ 10 µM

Task: System RAF proto-oncogene serine/threonine-protein kinase (Homo sapiens, UniProt P04049). Read-out IC50. Item COc1cnc2[nH]cc(C(=O)c3c(F)ccc(NS(=O)(=O)c4ccccc4F)c3F)c2c1 . Report value.
Output: ≤ 10 µM

Task: System RAF proto-oncogene serine/threonine-protein kinase (Homo sapiens, UniProt P04049). Read-out IC50. Item O=C(c1cc(O)ccc1F)c1c[nH]c2ncc(-c3ccccc3)cc12 . Report value.
Output: ≤ 10 µM

Task: System RAF proto-oncogene serine/threonine-protein kinase (Homo sapiens, UniProt P04049). Read-out IC50. Item COc1ncnc2[nH]cc(Cc3cnc(NCc4ccc(C(F)(F)F)nc4)nc3)c12 . Report value.
Output: ≤ 10 µM

Task: System RAF proto-oncogene serine/threonine-protein kinase (Homo sapiens, UniProt P04049). Read-out IC50. Item Cc1c(O)cccc1C(=O)c1c[nH]c2ncc(Br)cc12 . Report value.
Output: ≤ 10 µM

Task: System RAF proto-oncogene serine/threonine-protein kinase (Homo sapiens, UniProt P04049). Read-out IC50. Item N#Cc1cnc2[nH]cc(C(=O)c3cccc(NS(=O)(=O)CC(F)(F)F)c3F)c2c1 . Report value.
Output: ≤ 10 µM

Task: System RAF proto-oncogene serine/threonine-protein kinase (Homo sapiens, UniProt P04049). Read-out IC50. Item Cc1cnc2[nH]cc(C(=O)c3c(F)ccc(NS(C)(=O)=O)c3F)c2c1 . Report value.
Output: ≤ 10 µM

Task: System RAF proto-oncogene serine/threonine-protein kinase (Homo sapiens, UniProt P04049). Read-out IC50. Item COc1ncc(-c2cnc3[nH]cc(C(=O)c4c(F)ccc(NS(=O)(=O)c5cc(F)ccc5F)c4F)c3c2)cn1 . Report value.
Output: ≤ 10 µM

Task: System RAF proto-oncogene serine/threonine-protein kinase (Homo sapiens, UniProt P04049). Read-out IC50. Item COc1ccnc2[nH]cc(C(=O)c3c(F)ccc(NS(=O)(=O)c4ccccc4F)c3F)c12 . Report value.
Output: < 0.01 µM

Task: System RAF proto-oncogene serine/threonine-protein kinase (Homo sapiens, UniProt P04049). Read-out IC50. Item CCCS(=O)(=O)Nc1ccc(F)c(C(=O)c2c[nH]c3ncc(-c4ccc(C#CCN(CC)CC)nc4)cc23)c1F . Report value.
Output: < 0.01 µM
